Where do these numbers come from? They come from patent US20250084056A1.

biological target: Cyclin E1 (Homo sapiens, UniProt P24864+Q96SW2); assay: Cyclin E1 Cellular Degradation Assay (MSD); type: cell-based; set-up: endogenous in cells; host or cells: OVCAR3; conditions: Cyclin E1 cellular degradation, maximum degradation
Sequence (P24864 whole entry): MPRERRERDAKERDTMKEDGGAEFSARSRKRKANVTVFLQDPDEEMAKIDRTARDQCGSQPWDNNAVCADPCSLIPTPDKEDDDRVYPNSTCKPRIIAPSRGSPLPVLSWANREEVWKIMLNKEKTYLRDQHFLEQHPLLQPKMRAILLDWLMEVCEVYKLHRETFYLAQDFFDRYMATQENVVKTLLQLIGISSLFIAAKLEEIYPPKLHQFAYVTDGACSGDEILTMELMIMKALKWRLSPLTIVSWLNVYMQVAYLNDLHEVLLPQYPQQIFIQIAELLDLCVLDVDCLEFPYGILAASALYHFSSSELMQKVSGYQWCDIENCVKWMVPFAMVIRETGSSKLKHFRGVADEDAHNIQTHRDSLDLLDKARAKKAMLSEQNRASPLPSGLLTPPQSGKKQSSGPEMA
Sequence (Q96SW2 whole entry): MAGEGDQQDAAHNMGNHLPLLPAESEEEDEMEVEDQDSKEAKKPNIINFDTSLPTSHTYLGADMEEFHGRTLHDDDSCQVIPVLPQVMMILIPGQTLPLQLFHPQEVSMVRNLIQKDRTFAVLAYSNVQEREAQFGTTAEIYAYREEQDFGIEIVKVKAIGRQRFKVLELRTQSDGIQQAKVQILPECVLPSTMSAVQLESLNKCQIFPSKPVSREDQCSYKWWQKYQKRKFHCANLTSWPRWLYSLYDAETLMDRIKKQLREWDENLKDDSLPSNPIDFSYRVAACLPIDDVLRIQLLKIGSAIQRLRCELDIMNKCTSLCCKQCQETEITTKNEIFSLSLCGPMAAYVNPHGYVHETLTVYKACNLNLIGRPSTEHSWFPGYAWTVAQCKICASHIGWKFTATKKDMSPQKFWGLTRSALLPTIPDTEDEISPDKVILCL
Sequence (Q16531 whole entry partner): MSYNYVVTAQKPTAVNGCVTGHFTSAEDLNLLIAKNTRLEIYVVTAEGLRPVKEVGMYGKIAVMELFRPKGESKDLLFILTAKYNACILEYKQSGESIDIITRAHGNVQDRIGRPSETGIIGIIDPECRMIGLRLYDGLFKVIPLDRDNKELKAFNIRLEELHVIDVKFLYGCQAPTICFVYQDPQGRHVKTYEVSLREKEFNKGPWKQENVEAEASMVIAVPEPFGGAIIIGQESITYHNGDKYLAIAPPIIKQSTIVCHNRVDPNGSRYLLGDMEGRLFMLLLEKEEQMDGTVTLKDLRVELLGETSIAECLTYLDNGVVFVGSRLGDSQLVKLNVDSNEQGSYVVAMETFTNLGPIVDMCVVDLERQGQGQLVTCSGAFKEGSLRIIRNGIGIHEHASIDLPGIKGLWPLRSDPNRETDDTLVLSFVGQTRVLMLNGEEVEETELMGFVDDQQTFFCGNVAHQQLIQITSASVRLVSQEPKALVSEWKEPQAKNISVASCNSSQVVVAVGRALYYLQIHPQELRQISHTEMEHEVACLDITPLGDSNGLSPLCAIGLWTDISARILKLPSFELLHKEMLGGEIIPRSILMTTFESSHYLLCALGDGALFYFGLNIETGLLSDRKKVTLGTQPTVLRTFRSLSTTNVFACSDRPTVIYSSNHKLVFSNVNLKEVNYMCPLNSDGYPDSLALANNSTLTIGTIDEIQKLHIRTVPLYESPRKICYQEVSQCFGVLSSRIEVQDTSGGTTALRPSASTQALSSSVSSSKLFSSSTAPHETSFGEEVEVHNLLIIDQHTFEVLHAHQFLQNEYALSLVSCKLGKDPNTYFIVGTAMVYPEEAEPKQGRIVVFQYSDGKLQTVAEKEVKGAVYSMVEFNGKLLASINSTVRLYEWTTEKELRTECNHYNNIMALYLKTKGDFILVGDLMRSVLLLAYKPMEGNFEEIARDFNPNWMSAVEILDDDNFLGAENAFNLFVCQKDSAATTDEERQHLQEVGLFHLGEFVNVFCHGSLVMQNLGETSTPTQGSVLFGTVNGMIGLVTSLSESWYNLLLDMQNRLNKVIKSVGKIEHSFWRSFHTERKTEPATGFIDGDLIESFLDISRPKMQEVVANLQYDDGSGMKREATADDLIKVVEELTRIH
assayReadout: Dmax (%)

COc1cc(Oc2ccc(F)cc2Cl)ccc1NC(=O)OCc1ccc2c(c1OC)C(=O)N(C1CCC(=O)NC1=O)C2 (stereo not drawn) = 108
COc1c(COC(=O)Nc2ccc(Oc3ccc(F)cc3C(F)F)cc2)ccc2c1C(=O)N(C1CCC(=O)NC1=O)C2 (stereo not drawn) = 101
COc1c(COC(=O)Nc2ccc(Oc3ccc(F)cc3Cl)cc2C)ccc2c1C(=O)N(C1CCC(=O)NC1=O)C2 (stereo not drawn) = 107
O=C1CCC(N2Cc3ccc(COC(=O)Nc4ccc(Oc5ccc(F)cc5F)cc4)c(OC4CCOCC4)c3C2=O)C(=O)N1 (stereo not drawn) = 105
COc1cc(Oc2ccc(F)c(C)c2)ccc1NC(=O)OCc1ccc2c(c1OC)C(=O)N(C1CCC(=O)NC1=O)C2 (stereo not drawn) = 106
COc1c(COC(=O)Nc2ccc(Oc3ccccc3Cl)cc2)ccc2c1C(=O)N(C1CCC(=O)NC1=O)C2 (stereo not drawn) = 115
COc1cc(Oc2ccccc2C(F)F)ccc1NC(=O)OCc1ccc2c(c1OC)C(=O)N(C1CCC(=O)NC1=O)C2 (stereo not drawn) = 104
COc1c(COC(=O)Nc2ccc(Oc3ccc(Cl)c(F)c3)cc2F)ccc2c1C(=O)N(C1CCC(=O)NC1=O)C2 (stereo not drawn) = 106
COc1c(COC(=O)Nc2ccc(Oc3ccccc3C)cc2)ccc2c1C(=O)N(C1CCC(=O)NC1=O)C2 (stereo not drawn) = 108
O=C1CCC(N2Cc3ccc(COC(=O)Nc4ccc(Oc5ccc(F)c(F)c5)cc4F)c(Oc4ccccc4)c3C2=O)C(=O)N1 (stereo not drawn) = 105
CC(C)Oc1c(COC(=O)Nc2ccc(Oc3cccc(F)c3F)cc2)ccc2c1C(=O)N(C1CCC(=O)NC1=O)C2 (stereo not drawn) = 108
CC(C)(O)COc1c(COC(=O)Nc2ccc(Oc3ccc(F)cc3F)cc2F)ccc2c1C(=O)N(C1CCC(=O)NC1=O)C2 (stereo not drawn) = 110
CC(C)Oc1c(COC(=O)Nc2ccc(Oc3ccccc3F)cc2)ccc2c1C(=O)N(C1CCC(=O)NC1=O)C2 (stereo not drawn) = 107
COc1c(COC(=O)Nc2ccc(Oc3ccc(F)c(C)c3)cc2)ccc2c1C(=O)N(C1CCC(=O)NC1=O)C2 (stereo not drawn) = 106
CC(C)Oc1c(COC(=O)Nc2ccc(Oc3ccc(F)c(F)c3)cc2F)ccc2c1C(=O)N(C1CCC(=O)NC1=O)C2 (stereo not drawn) = 107
COc1c(COC(=O)Nc2ccc(Oc3cccc(F)c3)cc2)ccc2c1C(=O)N(C1CCC(=O)NC1=O)C2 (stereo not drawn) = 108
O=C1CCC(N2Cc3ccc(COC(=O)Nc4ccc(Oc5ccc(F)c(F)c5)cc4)c(OC4CCCOCC4)c3C2=O)C(=O)N1 (stereo not drawn) = 109
CC(C)(O)COc1c(COC(=O)Nc2ccc(Oc3ccc(F)cc3)cc2F)ccc2c1C(=O)N(C1CCC(=O)NC1=O)C2 (stereo not drawn) = 107
O=C1CCC(N2Cc3ccc(COC(=O)Nc4ccc(Oc5ccc(F)c(F)c5)cc4)c(OCC(=O)N4CCOCC4)c3C2=O)C(=O)N1 (stereo not drawn) = 105
O=C1CCC(N2Cc3ccc(COC(=O)Nc4ccc(Oc5ccc(F)c(F)c5)cc4)c(OC4CCCCC4)c3C2=O)C(=O)N1 (stereo not drawn) = 108
O=C1CCC(N2Cc3ccc(COC(=O)Nc4ccc(Oc5ccccc5Cl)cc4)c(Oc4ccccc4)c3C2=O)C(=O)N1 (stereo not drawn) = 103
COc1c(COC(=O)Nc2ccc(Oc3ccc(F)c(C)c3)cc2C)ccc2c1C(=O)N(C1CCC(=O)NC1=O)C2 (stereo not drawn) = 109
O=C1CCC(N2Cc3ccc(COC(=O)Nc4ccc(Oc5ccc(F)cc5Cl)cc4)c(OC4CCC4)c3C2=O)C(=O)N1 (stereo not drawn) = 106
COc1c(COC(=O)Nc2ccc(Oc3ccccc3C(F)(F)F)cc2Cl)ccc2c1C(=O)N(C1CCC(=O)NC1=O)C2 (stereo not drawn) = 100
COc1c(COC(=O)Nc2ccc(Oc3ccc(Cl)c(F)c3)cc2)ccc2c1C(=O)N(C1CCC(=O)NC1=O)C2 (stereo not drawn) = 105
O=C1CCC(N2Cc3ccc(COC(=O)Nc4ccc(Oc5cccc(F)c5F)cc4)c(Oc4ccccc4)c3C2=O)C(=O)N1 (stereo not drawn) = 107
COC(=O)COc1c(COC(=O)Nc2ccc(Oc3ccc(F)c(F)c3)cc2)ccc2c1C(=O)N(C1CCC(=O)NC1=O)C2 (stereo not drawn) = 100
